# Tested on: HeLa
# MEASUREMENT_NOTES: Cytotoxicity against human HeLa cells assessed as reduction in cell viability incubated for 48 hrs by CCK-8 assay
# Assay type: functional, cell-based
PARAMETER: IC50 (nM)
Value expressed in nM; do not type the unit.

[[record]]
molecule = "C[C@@H]1C[C@@H]([C@H](O)CC2CC(=O)NC(=O)C2)C(=O)[C@@H](C)C1 [CYCLOHEXIMIDE]"
unit_name = "nM"
numeric_value = 1000


# IC50 measured on HeLa for item COc1cccc2c1C(=O)c1c(O)c3c(c(O)c1C2=O)C[C@@](O)(C(=O)CO)C[C@@H]3O[C@H]1C[C@H](N)[C@H](O)[C@H](C)O1 = 90

====

Items are presented alongside their recorded IC50.
# System: HeLa
# MEASUREMENT_NOTES: Cytotoxicity against human HeLa cells assessed as reduction in cell viability incubated for 48 hrs by CCK-8 assay
# Assay type: functional, cell-based

Known IC50 results, listed for orientation:
[[record]]
smiles_data = "Cc1cc(C)c(O[C@@H]2O[C@@H](C)[C@H](O)[C@@H](O)[C@H]2O)c(C(=O)CC2CC(=O)NC(=O)C2)c1"
parameter = "IC50"
result = "> 20 µM"

[[record]]
smiles_data = "C[C@@H]1C/C(=C\\CC2CC(=O)NC(=O)C2)C(=O)[C@@H](C)C1"
parameter = "IC50"
result = "> 20 µM"


Proceed to the following item.
Kindly note the recorded IC50 for C[C@@H]1C[C@@H]([C@@H](CC2CC(=O)NC(=O)C2)O[C@H]2O[C@H](CO)[C@@H](O)[C@H](O)[C@H]2O)C(=O)[C@@H](C)C1 , which is > 20 µM
